These entries and their values trace back to patent US10343992B2.

Consider compounds characterized by their pIC50 with USP30 (Homo sapiens (Human), UniProt Q70CQ3).
Sequence (Q70CQ3 57-517): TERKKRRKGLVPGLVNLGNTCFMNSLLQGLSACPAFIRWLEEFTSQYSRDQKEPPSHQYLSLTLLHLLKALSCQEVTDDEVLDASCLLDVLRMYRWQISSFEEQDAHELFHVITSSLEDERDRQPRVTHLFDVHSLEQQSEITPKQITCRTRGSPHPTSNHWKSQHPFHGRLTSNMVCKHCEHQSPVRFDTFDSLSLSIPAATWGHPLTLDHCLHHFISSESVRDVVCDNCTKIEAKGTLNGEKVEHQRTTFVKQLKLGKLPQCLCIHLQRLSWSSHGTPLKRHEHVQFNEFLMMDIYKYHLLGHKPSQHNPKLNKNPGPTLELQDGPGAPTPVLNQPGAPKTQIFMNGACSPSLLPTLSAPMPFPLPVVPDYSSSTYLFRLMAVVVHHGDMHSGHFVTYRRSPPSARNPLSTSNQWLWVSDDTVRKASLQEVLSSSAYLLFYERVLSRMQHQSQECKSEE
pIC50: −log10 of the molar value.

Inquiry: Provide measured pIC50 value, entry: CCn1cc(-c2ccc(C(=O)N[C@@H]3CCN(C#N)C3)c(F)c2)cn1
Reply text: > 7.00

Inquiry: Provide measured pIC50 value, entry: N#CN1CC[C@@H](NC(=O)c2ncc(-c3ccccc3)cn2)C1
Reply text: 6.00 to 7.00

Inquiry: Provide measured pIC50 value, entry: COc1ccc(-c2cc(C(=O)N[C@@H]3CCN(C#N)C3)on2)cc1OC
Reply text: 6.00 to 7.00
